Entry source: PubChem BioAssay (NCI)

- System: HS 578T breast
- ASSAY OVERVIEW: NCI tumour cell line growth inhibition, 48 h
Would you mind telling me the reported TGI of each entry?
Answers are plain numbers, in µM.

Respectfully, I request TGI for each entry included below.
1. C#Cc1cccc(Nc2nc(Cl)nc3cc(NC(=O)CCl)ccc23)c1
2. CS(=O)(=O)OCCCNCCCOS(C)(=O)=O
3. O=C(NC(=O)c1c(Cl)nc2sccn12)Nc1ccc(Cl)cc1
4. CSc1nc2nc3c(nc2c(=O)n1C)C(=O)c1ccccc1C3=O

Result string:
1. 9.17
2. 8170
3. 62.9
4. 0.678

Would you mind listing TGI for each of the following compounds?
1. O=C(CN(/C=C/C(=O)C(F)(F)F)c1ccc(Cl)cc1)c1ccc(Cl)c(Cl)c1
2. CC(=O)N1CCN(CCNC(=O)n2cc(-c3ccncc3)c(-c3cc(O)cc(Cl)c3)n2)CC1

Result string:
1. 38.3
2. 53.4

Your task in this section: give TGI for each listed record.
1. COc1ccc(-c2ccc(/C=N/n3c(COc4ccccc4Cl)nn(CN4CCOCC4)c3=S)o2)c([N+](=O)[O-])c1
2. CC(=O)O[C@H]1CC2C(C3CCC(C(C)CCC(N)=O)[C@]31C)[C@H](OC(C)=O)C[C@@H]1CC3(CC[C@]21C)OOC1(CC[C@]2(C)C4C[C@H](OC(C)=O)[C@]5(C)C(C(C)CCC(N)=O)CCC5C4[C@H](OC(C)=O)C[C@@H]2C1)OO3 (some centres not stated)
3. O=C(/C=C/C=C/c1ccccc1)c1ccco1
4. COc1cccc2cc(N(C)c3nc(C)nc4c3CCC4)ccc12
5. COc1cc(C2C3=C(COC3=O)N(CCO)c3cc4c(cc32)OCCO4)cc(OC)c1OC (configuration not stated)
6. S=C1Cc2c(-c3ccc(Br)cc3)cc(-c3ccccc3)nc2-c2ccccc2N1
7. Cc1c([C@H](C)[C@@H]2NC[C@@H](C)C[C@H]2O)ccc2c1C[C@H]1[C@H]2CC=C2C[C@@H](O)CC[C@@]21C
8. COC(=O)Cn1cnc2c(Cl)nc(Nc3ccccc3)nc21

Result string:
1: 90.4; 2: 4.55; 3: 52.9; 4: 30; 5: 35.5; 6: 3.84; 7: 66.6; 8: 54.1
